Biological target: T1, rat IL-25 expressed with a C-terminal myc-myc-hexahistidine tag (rat)
T1 construct: also called Rat IL-25-MMH
T1 chain: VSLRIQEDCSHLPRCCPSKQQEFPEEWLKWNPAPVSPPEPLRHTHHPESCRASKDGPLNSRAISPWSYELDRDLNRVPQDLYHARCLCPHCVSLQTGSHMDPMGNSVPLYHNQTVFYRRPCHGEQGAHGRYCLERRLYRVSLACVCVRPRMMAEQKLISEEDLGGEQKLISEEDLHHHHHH
Assay: SPR Biacore, antibody captured, 37C
MEASUREMENT KIND: kon (M⁻¹ s⁻¹)
Number in M⁻¹ s⁻¹, nothing else.

Example entries begin here.
// returns reported kon for input H4H10907P (antibody, human IgG4, V domains shown, H4H prefix = human IgG4 Fc) VH: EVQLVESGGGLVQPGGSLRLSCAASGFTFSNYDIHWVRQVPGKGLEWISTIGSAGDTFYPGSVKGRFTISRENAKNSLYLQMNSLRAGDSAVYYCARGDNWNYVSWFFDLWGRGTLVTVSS VL: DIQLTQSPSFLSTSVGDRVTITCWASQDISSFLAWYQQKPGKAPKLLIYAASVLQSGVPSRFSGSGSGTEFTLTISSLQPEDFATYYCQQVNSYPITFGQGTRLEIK 238000

// returns reported kon for input H4H10863P (antibody, human IgG4, V domains shown, H4H prefix = human IgG4 Fc) VH: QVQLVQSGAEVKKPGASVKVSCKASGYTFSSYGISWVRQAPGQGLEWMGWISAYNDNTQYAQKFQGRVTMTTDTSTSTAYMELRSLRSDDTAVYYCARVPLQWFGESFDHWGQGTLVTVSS VL: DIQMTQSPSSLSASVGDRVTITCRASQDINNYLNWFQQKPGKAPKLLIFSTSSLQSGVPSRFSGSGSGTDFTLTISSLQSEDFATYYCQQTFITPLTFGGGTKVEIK 474000

Now examine the next entry.
// returns reported kon for input H4H10905P (antibody, human IgG4, V domains shown, H4H prefix = human IgG4 Fc) VH: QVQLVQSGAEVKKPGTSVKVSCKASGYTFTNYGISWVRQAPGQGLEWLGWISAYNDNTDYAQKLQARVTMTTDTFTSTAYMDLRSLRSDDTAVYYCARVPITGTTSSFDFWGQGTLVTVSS VL: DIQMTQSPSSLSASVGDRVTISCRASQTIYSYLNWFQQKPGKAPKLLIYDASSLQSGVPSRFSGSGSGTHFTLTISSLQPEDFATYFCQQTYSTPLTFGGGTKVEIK 481000
